B1: Twister Ribozyme (parent)
chain: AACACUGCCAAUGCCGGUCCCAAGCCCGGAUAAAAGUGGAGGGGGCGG

Variants of: B1
Assay: self-cleavage, relative activity (ratio to wild type); higher = more cleavage; co-transcriptional
Listing of recorded self-cleavage by entry.

alteration	self-cleavage
C8U A40C	0.202
A34U C46U	0.84
C9G G16C	0.0741
G16C A32C	0.536
A10G G44A	0.881
A32G A40U	0.117
U31C G39U	0.19
G24U G47A	0.094
U18G G29A	0.089
C3G G13U	0.0808
A32G A34G	0.679
C26G A32C	0.141
C5U C46U	0.825
A10U G45A	0.999
G17C A34G	0.112
A4U A11C	0.0933
C20G G38U	0.0717
A4G G29C	0.571
G7C A22C	0.0571
C9A	0.776
A4C A30C	0.0841
A40U G48U	0.21
U12C G36C	0.559
G7A U12G	0.381
C15U A32G	0.891
C9A G39U	0.131
C8G G16U	0.108
C14U A34U	0.951
C8U G24A	0.772
G13A C15A	0.46
A4G G41A	0.244
A35G G44U	0.831
G29C G36C	0.122
A1U A2U	0.0794
A1U G41C	0.0395
